# cell viability listing for each entry below
System: HepG2
Assay explanation: cell viability relative to DMSO; higher = less toxic
Experimental parameters: 72 h; 100 nM

Compound	cell viability / %
CC1(C)[C@@H]2C[C@@H](O)[C@@](C)(O)[C@H]1C2 [2,3-cis/exo-pinanediol]	104
CC(C)(C)NC(=O)N[C@H](C(=O)N1C[C@H]2[C@@H]([C@H]1C(=O)NC(CC1CCC1)C(=O)C(N)=O)C2(C)C)C(C)(C)C (some centres not stated) [boceprevir]	109
C/C(=C\c1ccc(C(=O)O)cc1)c1ccc2c(c1)C(C)(C)CCC2(C)C	108
CCC1(c2ccc(N)cc2)CCC(=O)NC1=O (configuration not stated) [aminoglutethimide]	85.3
CCOC1O[C@H]([C@@H](COCc2ccccc2)OCc2ccccc2)[C@H](OCc2ccccc2)[C@H]1O (some centres not stated) [tribenoside]	93.6
CN(Cc1ccccc1)C(=O)[C@H](Cc1ccc2ccccc2c1)NC(=O)[C@@H]1C[C@@H](O)CN1C(=O)c1cn(C)c2ccccc12	106
CCOc1ccc(-n2c([C@@H](C)N(Cc3cccnc3)C(=O)Cc3ccc(F)c(C(F)(F)F)c3)nc3ncccc3c2=O)cc1 (racemic)	97.9
CC(=O)Nc1nnc(S(N)(=O)=O)s1 [acetazolamide]	105
c1cncc(CN2CCC(n3ncc4c(N5CCOCC5)nc(-c5ccc6[nH]ccc6c5)nc43)CC2)c1	98.5
C[C@H]1CCc2c(cc(Br)c(F)c2Br)N1C=O	113
O=c1c(O)c(-c2cc(O)c(O)c(O)c2)oc2cc(O)cc(O)c12	106
C[C@]12CC[C@@H]3c4ccc(OC(=O)N(CCCl)CCCl)cc4CC[C@H]3[C@@H]1CC[C@@H]2OP(=O)(O)O [estramustine-phosphate]	101
CCC1=C(C)CN(C(=O)NCCc2ccc(S(=O)(=O)NC(=O)N[C@H]3CC[C@H](C)CC3)cc2)C1=O [glimepiride]	104
CC(=O)NCC(=O)N1[C@@H]2CC[C@H]1c1ccc(Nc3ncc(C(F)(F)F)c(NC4CCC4)n3)cc12	84.6
O=C(NCCCN1CCC2(CC1)OCc1ccccc12)[C@H]1CCCN1Cc1ccccc1	103
CCCCc1ccc(O)cc1O	107
C[N+](C)(C)CCCCCC[N+](C)(C)C	97.6

* * *

Test system: Caco-2
Assay explanation: relative viability EC50 (midpoint between 100% and the lowest measured viability); higher = less toxic
Experimental parameters: 72 h
# relative viability EC50 listing for each entry below
Reported property: relative viability EC50

> print(dat)
                                    compound  result.value
 1  O=C1CC2(CCCC2)CC(=O)N1CCCCNC[C@H]1COc2ccccc2O1 (racemic)       > 10 µM
 2  c1ccc2c(-c3cnn4cc(-c5ccc(N6CCNCC6)cc5)cnc34)ccnc2c1       1.94 µM
 3  O=C1Nc2ccc(Cl)c3c2C1(CCCCN1CC=C(c2ccc(Cl)cc2)CC1)CCC3 (stereo not drawn)        2.5 µM
 4  CC(N)C12CC3CC(CC(C3)C1)C2 (stereo not drawn)       > 10 µM
 5                 C[C@H]1N=C(N(C)C)N=C(N)N1       > 10 µM
 6  O[C@@](Cc1nc(CC2(C(F)(F)F)CC2)c[nH]1)(c1ccc(-n2cccn2)cc1)C(F)(F)F       > 10 µM
 7  Nc1ncnc2c1nc(Br)n2[C@@H]1O[C@@H]2COP(=O)(O)O[C@H]2[C@H]1O       > 10 µM
 8  OC[C@H]1O[C@@H](OCCc2ccc(O)cc2)[C@H](O)[C@@H](O)[C@@H]1O [salidroside]       > 10 µM
 9  Oc1ccc([C@@H]2Oc3ccc(O)cc3[C@@H]3CCC[C@@H]32)cc1       > 10 µM
10              C[N+](C)(C)CCCCCC[N+](C)(C)C       > 10 µM
11    Cc1cc(C(=O)CN2CCCC2)c(C)n1-c1ccc(F)cc1       > 10 µM
12  CC[C@H](CC#N)OC(=O)N[C@@H](C)c1cccc(NC(=O)Nc2ccc(-c3cnco3)c(OC)c2)c1      0.319 µM
13  OCCC#Cc1nc(-c2ccc(F)cc2)c(-c2ccncc2)n1CCCc1ccccc1       > 10 µM
14         C[C@H]1CCc2c(cc(Br)c(F)c2Br)N1C=O       > 10 µM
15  NS(=O)(=O)c1ccc(-n2nc(C(F)(F)F)cc2-c2ccc(Cl)cc2)cc1       > 10 µM
16                OCC[N+]12CN3CN(CN(C3)C1)C2       > 10 µM
17  C[C@]12CC[C@@H]3c4ccc(OC(=O)N(CCCl)CCCl)cc4CC[C@H]3[C@@H]1CC[C@@H]2OP(=O)(O)O [estramustine-phosphate]       > 10 µM
18   CCc1oc2ccccc2c1C(=O)c1cc(Br)c(O)c(Br)c1       > 10 µM
19  CC(C)(C)NCC(O)COc1cccc2[nH]c(C#N)cc12 (stereo not drawn)       > 10 µM
20  O=C(O)c1ccccc1C(=O)Nc1ccc(S(=O)(=O)Nc2nccs2)cc1       > 10 µM
21  CC1(C)CCC(C)(C)c2cc(C#Cc3ccc(C(=O)O)cc3)ccc21       > 10 µM
22             O=S1(=O)N[C@H]2CCCN2c2ccccc21       > 10 µM
23  NC(=O)c1ccc(-c2nc(-c3ccccn3)c(-c3ccc4c(c3)OCO4)[nH]2)cc1       > 10 µM
24  CCNC(=O)N1CCN(CCCC(c2ccc(F)cc2)c2ccc(F)cc2)CC1 [amperozide]       > 10 µM
25  COc1cc2c(cc1OC)CC(=O)N(CCCN(C)C[C@H]1Cc3cc(OC)c(OC)cc31)CC2       > 10 µM
26                            Cc1nc[nH]c1CCN       > 10 µM
27  CSc1ccccc1OCC(O)CNC(C)C (stereo not drawn)       > 10 µM
28              OC[C@H]1NCC[C@@H](O)[C@@H]1O       > 10 µM
29  O=C(COc1ccc(Cl)cc1)N1CCN(Cc2ccc3c(c2)OCO3)CC1 [fipexide]       > 10 µM
30  Cc1c(C(=O)NN2CCOCC2)nn(-c2ccc(Cl)cc2Cl)c1-c1ccc(I)cc1       > 10 µM
31  CC1=C(CC(=O)O)c2cc(F)ccc2/C1=C\c1ccc([S+](C)[O-])cc1 (stereo not drawn)       > 10 µM
32  C[C@]12CC[C@H](O)C[C@H]1CC[C@@H]1[C@@H]2CC[C@]2(C)[C@@H](c3ccc(=O)oc3)C[C@H]3O[C@]132       2.59 µM
33  O=c1[nH]c(=O)n([C@H]2CCCO2)cc1F (racemic)       > 10 µM
34                              NC(CO)(CO)CO       > 10 µM
35  CC[C@@H](CO)NC(=O)[C@@H]1C=C2c3cccc4c3c(cn4C)C[C@H]2N(C)C1 [methysergide]       > 10 µM
36         Cc1ccc(C(=O)c2ccc(CC(=O)O)n2C)cc1       > 10 µM
37  [N-]=[N+]=N[C@]1(CO)O[C@@H](n2ccc(N)nc2=O)[C@H](O)[C@@H]1O       > 10 µM
38        CCn1nc(C)c2c1C(c1ccccc1)=NCC(=O)N2       > 10 µM

* * *

Tested on: Caco-2
Assay explanation: cell viability relative to DMSO; higher = less toxic
Experimental parameters: 72 h; 1000 nM
# cell viability listing for each entry below
Reported property: cell viability (%)

> print(dat)
                                   compound  measured.target  reported.property  display.unit  result.value
1  Cc1ccc2c(=O)c3cccc(CC(=O)O)c3oc2c1C [ASA-404]           Caco-2     cell viability             %            96
2  CC(C)[C@@H](CS(=O)(=O)C(C)C)N1C(=O)[C@@](C)(CC(=O)O)C[C@H](c2cccc(Cl)c2)[C@H]1c1ccc(Cl)cc1 [AMG-232]           Caco-2     cell viability             %          91.3
3  CC1=C(C(=O)OC2CCCCC2)C(c2ccc([N+](=O)[O-])cc2)C2=C(CC(C)(C)CC2=O)N1 (centres undefined) [FLI-06]           Caco-2     cell viability             %            98
4  COC[C@@H](NC(C)=O)C(=O)NCc1ccccc1 [Lacosamide]           Caco-2     cell viability             %          98.8
